# experimentalSystem: UniProt P51532
# Sequence (P51532 whole entry): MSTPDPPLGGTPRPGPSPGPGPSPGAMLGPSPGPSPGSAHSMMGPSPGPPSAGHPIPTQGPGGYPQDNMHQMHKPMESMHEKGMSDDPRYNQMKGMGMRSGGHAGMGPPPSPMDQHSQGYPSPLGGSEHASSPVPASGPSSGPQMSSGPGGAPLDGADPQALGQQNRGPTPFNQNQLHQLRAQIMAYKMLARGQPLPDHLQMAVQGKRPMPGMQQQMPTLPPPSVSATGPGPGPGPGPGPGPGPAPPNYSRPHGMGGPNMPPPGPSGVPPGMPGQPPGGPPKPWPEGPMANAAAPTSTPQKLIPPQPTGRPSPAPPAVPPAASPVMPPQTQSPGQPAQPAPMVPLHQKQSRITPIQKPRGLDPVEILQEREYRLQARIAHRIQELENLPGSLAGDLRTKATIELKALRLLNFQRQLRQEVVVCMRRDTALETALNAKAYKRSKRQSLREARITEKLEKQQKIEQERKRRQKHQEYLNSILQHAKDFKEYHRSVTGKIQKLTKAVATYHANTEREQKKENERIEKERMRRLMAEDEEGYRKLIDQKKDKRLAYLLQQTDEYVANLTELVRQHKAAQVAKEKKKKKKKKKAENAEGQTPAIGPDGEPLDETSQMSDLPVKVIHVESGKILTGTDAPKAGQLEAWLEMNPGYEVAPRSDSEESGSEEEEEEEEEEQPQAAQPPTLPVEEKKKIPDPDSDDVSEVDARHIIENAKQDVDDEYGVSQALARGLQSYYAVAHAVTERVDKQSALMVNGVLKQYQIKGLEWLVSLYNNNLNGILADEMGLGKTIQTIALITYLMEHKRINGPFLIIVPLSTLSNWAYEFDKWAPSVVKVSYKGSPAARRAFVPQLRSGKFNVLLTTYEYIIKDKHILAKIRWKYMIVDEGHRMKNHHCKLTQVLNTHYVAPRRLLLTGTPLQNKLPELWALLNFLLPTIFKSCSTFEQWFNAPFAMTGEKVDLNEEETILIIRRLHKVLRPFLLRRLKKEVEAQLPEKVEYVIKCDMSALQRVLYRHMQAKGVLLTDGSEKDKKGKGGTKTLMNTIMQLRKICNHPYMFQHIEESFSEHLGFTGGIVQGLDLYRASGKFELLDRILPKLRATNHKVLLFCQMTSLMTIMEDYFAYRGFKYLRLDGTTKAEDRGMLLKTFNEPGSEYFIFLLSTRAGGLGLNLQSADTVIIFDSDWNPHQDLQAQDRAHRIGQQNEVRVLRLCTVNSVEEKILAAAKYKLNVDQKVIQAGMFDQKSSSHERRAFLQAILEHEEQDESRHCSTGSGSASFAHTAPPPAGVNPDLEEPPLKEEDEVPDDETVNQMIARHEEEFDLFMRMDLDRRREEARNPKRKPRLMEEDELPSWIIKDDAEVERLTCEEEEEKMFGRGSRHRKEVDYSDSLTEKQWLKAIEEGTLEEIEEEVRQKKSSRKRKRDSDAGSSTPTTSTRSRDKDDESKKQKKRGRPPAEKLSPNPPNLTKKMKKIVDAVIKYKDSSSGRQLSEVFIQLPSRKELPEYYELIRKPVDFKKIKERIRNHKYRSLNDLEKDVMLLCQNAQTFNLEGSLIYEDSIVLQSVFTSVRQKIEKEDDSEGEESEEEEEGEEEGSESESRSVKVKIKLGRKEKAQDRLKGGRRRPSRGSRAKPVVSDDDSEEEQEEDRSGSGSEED
# assayRemarks: HiBiT assay for protein degradation, Hela SMARCA4-HiBiT cells (A series)
# Format: cell-based
# Parameters: fuse HiBiT to the carboxy terminus of SMARCA2 (Promega CS302365) or SMARCA4 (Promega CS3023225); host or cells: HeLa (CRISPR/Cas9 HiBiT knock-in)
# settings: Hela SMARCA4-HiBiT cells, 24 hours treatment; read-out: SMARC A4 Hela HiBit Dmax
endpoint: Dmax

[[record]]
compound = "Cc1ncsc1-c1ccc([C@H](CC(=O)N2CCC3(CCC(N4CCC(c5ccc6c(c5)-n5c(nc(=O)c7c(Br)cccc75)C65CCCCC5)CC4)CC3)CC2)NC(=O)[C@@H]2C[C@@H](O)CN2C(=O)[C@@H](n2cc(C3CC3)nn2)C(C)(C)C)cc1 [Compound A144]"
result = "70 to 90%"

[[record]]
compound = "Cc1ncsc1-c1ccc([C@H](CN2CCC3(COC3)C2)NC(=O)[C@@H]2C[C@@H](O)CN2C(=O)[C@@H](n2cc([C@H]3CC[C@H](CN4CCC(c5ccc6c(c5)-n5c(nc(=O)c7c(Cl)cccc75)C6(C)C)CC4)CC3)nn2)C(C)(C)C)cc1 [Compound A99]"
result = "< 50%"

[[record]]
compound = "Cc1ncsc1-c1ccc([C@H](CN2CCC(C(=O)O)CC2)NC(=O)[C@@H]2C[C@@H](O)CN2C(=O)[C@@H](n2cc([C@H]3CC[C@H](CN4CCC(c5ccc6c(c5)-n5c(nc(=O)c7c(Cl)cccc75)C65CCCCC5)CC4)CC3)nn2)C(C)(C)C)cc1 [Compound A156]"
result = "< 50%"

[[record]]
compound = "Cc1ncsc1-c1ccc([C@@H](NC(=O)[C@@H]2C[C@@H](O)CN2C(=O)[C@@H](n2cc(C3CC3)nn2)C(C)(C)C)C(=O)N2CCC3(CCC(N4CCC(c5ccc6c(c5)-n5c(nc(=O)c7c(Br)cccc75)C65CCCCC5)CC4)CC3)CC2)cc1 [Compound A139]"
result = "70 to 90%"

[[record]]
compound = "Cc1ncsc1-c1ccc([C@H](CN2CCOCC2)NC(=O)[C@@H]2C[C@@H](O)CN2C(=O)[C@H](C2CCCCC2)n2cc(-c3ccc(CN4CCC(c5ccc6c(c5)-n5c(nc(=O)c7c(Br)cccc75)C65CCCCC5)CC4)cc3)nn2)cc1 [Compound A128]"
result = "< 50%"

[[record]]
compound = "Cc1ncsc1-c1ccc([C@H](C)NC(=O)[C@@H]2C[C@@H](O)CN2C(=O)[C@H](C2CCN(C(=O)CN3CCC(c4ccc5c(c4)-n4c(nc(=O)c6c(Cl)cccc64)C54CCCCC4)CC3)CC2)n2cc(C3CC3)nn2)cc1 [Compound A105]"
result = "< 50%"

[[record]]
compound = "Cc1ncsc1-c1ccc([C@H](CC(=O)O)NC(=O)[C@@H]2C[C@@H](O)CN2C(=O)[C@@H](n2cc([C@H]3CC[C@H](CN4CCC(c5ccc6c(c5)-n5c(nc(=O)c7c(Cl)cccc75)C65CCCCC5)CC4)CC3)nn2)C(C)(C)C)cc1 [Compound A146]"
result = "< 50%"

[[record]]
compound = "Cc1ncsc1-c1ccc([C@H](CN2CCOCC2)NC(=O)[C@@H]2C[C@@H](O)CN2C(=O)[C@H](C2CCCCC2)n2cc([C@H]3CC[C@H](CN4CCC(c5ccc6c(c5)-n5c(nc(=O)c7c(Cl)cccc75)C65CCCCC5)CC4)CC3)nn2)cc1 [Compound A122]"
result = "50 to 69%"

